Target: T1, mouse DKK1 (mouse, UniProt O54908 32-272)
T1 construct: also called murine DKK1
T1 sequence: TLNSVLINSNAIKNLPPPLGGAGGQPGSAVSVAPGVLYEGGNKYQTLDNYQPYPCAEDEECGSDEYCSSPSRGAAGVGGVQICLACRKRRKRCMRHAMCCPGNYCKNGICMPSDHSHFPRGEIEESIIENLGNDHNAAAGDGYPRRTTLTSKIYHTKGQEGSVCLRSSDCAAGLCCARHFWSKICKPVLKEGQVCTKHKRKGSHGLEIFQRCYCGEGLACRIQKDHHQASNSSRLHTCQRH
Assay: KinExA 3000 equilibrium binding in solution
MEASURED_ENDPOINT: pKd
Please report pKd as the negative decimal logarithm of the molar concentration, giving only the number.

6.37.5 (antibody, V domains shown, Fully human IgG, kappa (Vk)) VH: QVQLVESGGGVVQPGRSLRLSCAASGFTFSGYGMHWVRQAPGKGLEWVAVISYDGNDKYYADSVKGRFTISRDNAKNTLYLQMNSLRAEDTAVYYCARELRVLWGQGTLVTVSS VL: DIVMTQTPLSLSVTPGQPASISCKSGQSLLHSDGKTYLYWYLQKPGQPPQFLIYEVSNRFSRVPDRFSGSGSGTDFTLRISRVEAEDVGIYYCMQSIQLPWTFGQGTQVEIK ... 10.30
5.80.1 (antibody, V domains shown, Fully human hybridoma IgG, lambda (Vl)) VH: EVQLVQSGAEVKKPGESLKISCKGSGYSFTSYWIGWVRQMPGKGLEWMGIIYPGDSDTRYSPSFQGQVTISADKSISTAYLQWSSLTASDTAMYYCARQGESFDYWGQGTLVTVSS VL: QSVLTQPPSVSGAPGQRVTISCTGSSSNIGADYDVHWYQQLPGTAPKLLIYDYSNRPSGVPDRFSGSKSGTSASLAITGLQAEDEADYYCQSYDNSLSGYVVFGGGTKLTVL ... 10.60
5.32.1 (antibody, V domains shown, Fully human hybridoma IgG, kappa (Vk)) VH: QVQLVQSGAEVKKPGASVKVSCKASGFTFTSYDISWVRQATGLGLEWMGWMNPSSGYTGYAQNFQGRVTMTWNTSISTVYMELSSLRSEDTAVYYCARTDYYYYGMDVWGRGTTVTVSS VL: DIQMTQSPSSLSASVGDRVTITCQASQDISKDLNWYQQKPGKAPKLLIYDASNLETGVPSRFSGSGSGTDFTFTISSLQPEDIATYYCQQYDDLPITFGQGTRLEIK ... 10.40

Query string: Provide measured pKd value, entry: 5.77.1 (antibody, V domains shown, Fully human hybridoma IgG, lambda (Vl)) VH: QVQLVQSGAEVKKPGASVKVSCKASGYTFTSYDINWVRQATGQGLEWMGWMNLNSDNTGYAQKFQGRVTMTRNTSISTAYMELSSLRSEDTAVYYCASIAARRDYNYYGMDVWGQGTKVTVSS VL: QSPSVSVAPGQTARITCGGNNIGSKSVHWYQQKPGQAPVLVVYDDSDRPSGIPERFSGSNSGNTATLTISRVEAGDEADYYCQVWDSSSDHWVFGGGTKLTVL
Result string: 9.85

// data source = patent US20210040189A1
